Target: Cyclin-dependent kinase 9 (Homo sapiens, UniProt P50750)
Sequence (P50750 whole entry): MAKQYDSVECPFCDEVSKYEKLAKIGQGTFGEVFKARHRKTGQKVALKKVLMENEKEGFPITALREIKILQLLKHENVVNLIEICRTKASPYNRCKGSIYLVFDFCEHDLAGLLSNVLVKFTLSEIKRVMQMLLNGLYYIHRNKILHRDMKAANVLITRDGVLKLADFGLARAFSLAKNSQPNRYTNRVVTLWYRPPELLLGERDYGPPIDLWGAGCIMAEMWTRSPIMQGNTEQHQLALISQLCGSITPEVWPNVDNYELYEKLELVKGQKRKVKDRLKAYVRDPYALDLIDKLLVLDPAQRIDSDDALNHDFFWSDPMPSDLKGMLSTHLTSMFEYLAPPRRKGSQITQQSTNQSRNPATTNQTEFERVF
Measured Endpoint: pIC50
Keep it numeric: pIC50 is minus log10 of the concentration in mol/L.

Briefly, pIC50 measured for Cc1n[nH]c2ccc(-c3cccnc3)cc12 : 6.20
